- System: Klebsiella pneumoniae
- assay_summary: Antibacterial activity against Klebsiella pneumoniae 523 after 18 to 24 hrs by agar dilution method
- Assay type: functional
observation_type: MIC
Reply with the number, then its unit.

Some solved cases for reference:
molecule: C[C@@H](O)C1C(=O)N2C(C(=O)O)=C(S[C@@H]3CN[C@H](CN4CC(C)(C)NS4(=O)=O)C3)[C@H](C)C12 (some centres not stated)
reported_result: 0.049 µg/mL
//
molecule: C[C@@H](O)C1C(=O)N2C(C(=O)O)=C(S[C@@H]3CN[C@H](CN4CCCNS4(=O)=O)C3)[C@H](C)C12 (some centres not stated)
reported_result: 0.049 µg/mL
//
molecule: C[C@@H](O)C1C(=O)N2C(C(=O)O)=C(S[C@@H]3CN[C@H](CN4CCN(Cc5ccccc5)S4(=O)=O)C3)[C@H](C)C12 (some centres not stated)
reported_result: 0.781 µg/mL

query: What MIC value was documented for this molecule, C[C@@H](O)C1C(=O)N2C(C(=O)O)=C(S[C@@H]3CN[C@H](CN4CCCN(C)S4(=O)=O)C3)[C@H](C)C12 (some centres not stated) ?
result: 0.025 µg/mL

query: What about C[C@@H](O)C1C(=O)N2C(C(=O)O)=C(S[C@@H]3CN[C@H](CN4CCOS4(=O)=O)C3)[C@H](C)C12 (some centres not stated) ?
result: 0.098 µg/mL

query: What about C[C@@H](O)[C@H]1C(=O)N2C(C(=O)O)=C(S[C@@H]3CN[C@H](C(=O)N(C)C)C3)[C@H](C)[C@H]12 [MEROPENEM] ?
result: 0.025 µg/mL

query: What about C[C@@H](O)C1C(=O)N2C(C(=O)O)=C(S[C@@H]3CN[C@H](CN4CCNS4(=O)=O)C3)[C@H](C)C12 (some centres not stated) ?
result: 0.049 µg/mL
